Cited source for all entries: ChEMBL document CHEMBL1909046

target: UniProt O70528; type: cell membranes, Dunkin-Hartley, Striatum, Membrane; settings: read-out: Ki; note: in other assays of this panel Not Active means under 50% inhibition at 10 µM
Sequence (O70528 whole entry): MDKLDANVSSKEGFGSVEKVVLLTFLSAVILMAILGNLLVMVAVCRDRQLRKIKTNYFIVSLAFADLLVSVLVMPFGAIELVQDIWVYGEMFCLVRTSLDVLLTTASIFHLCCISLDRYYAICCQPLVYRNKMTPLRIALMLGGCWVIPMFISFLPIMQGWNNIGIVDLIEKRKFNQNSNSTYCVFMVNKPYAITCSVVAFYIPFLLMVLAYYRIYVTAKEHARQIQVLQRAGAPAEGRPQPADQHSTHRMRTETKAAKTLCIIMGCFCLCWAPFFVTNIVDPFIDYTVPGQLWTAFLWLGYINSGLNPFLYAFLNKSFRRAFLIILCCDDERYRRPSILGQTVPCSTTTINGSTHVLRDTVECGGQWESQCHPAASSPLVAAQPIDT
// reported Ki for each item listed
Observed property: Ki

1) COc1cccc2c1C(=O)c1c(O)c3c(c(O)c1C2=O)C[C@@](O)(C(=O)CO)C[C@@H]3O[C@H]1C[C@H](N)[C@@H](O)[C@H](C)O1 [EPIRUBICIN] ... 1320 nM
2) COc1cccc2c1C(=O)c1c(O)c3c(c(O)c1C2=O)C[C@@](O)(C(=O)CO)C[C@@H]3O[C@H]1C[C@H](N)[C@H](O)[C@H](C)O1 [DOXORUBICIN] ... 2080 nM

* * *

molecular target: Alpha-1D adrenergic receptor (Homo sapiens, UniProt P25100); type: cell membranes, HEK293, Membrane; conditions: hek293; note: in other assays of this panel Not Active means under 50% inhibition at 10 µM
Sequence (P25100 whole entry): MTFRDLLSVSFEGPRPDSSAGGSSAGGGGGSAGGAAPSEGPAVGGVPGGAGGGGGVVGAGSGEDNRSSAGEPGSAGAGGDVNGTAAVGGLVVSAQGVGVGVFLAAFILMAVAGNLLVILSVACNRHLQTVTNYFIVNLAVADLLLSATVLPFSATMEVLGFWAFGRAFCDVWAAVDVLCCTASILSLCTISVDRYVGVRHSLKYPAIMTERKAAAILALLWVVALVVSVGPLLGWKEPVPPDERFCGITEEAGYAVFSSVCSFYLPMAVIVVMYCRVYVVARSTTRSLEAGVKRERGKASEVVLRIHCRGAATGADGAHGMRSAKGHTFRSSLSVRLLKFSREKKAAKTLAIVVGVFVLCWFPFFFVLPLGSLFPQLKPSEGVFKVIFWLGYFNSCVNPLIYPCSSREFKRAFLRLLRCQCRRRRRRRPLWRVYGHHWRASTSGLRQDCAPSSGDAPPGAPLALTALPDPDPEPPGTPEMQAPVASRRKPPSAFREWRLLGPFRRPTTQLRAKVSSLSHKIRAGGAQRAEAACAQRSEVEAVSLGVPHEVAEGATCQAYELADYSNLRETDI
Observed property: IC50

1. CC(C)C[C@H](NC(=O)[C@@H](O)[C@H](N)Cc1ccccc1)C(=O)O ... Not Active
2. O=C(N[C@H](CO)[C@H](O)c1ccc([N+](=O)[O-])cc1)C(Cl)Cl ... Not Active
3. CCCC(CCC)C(=O)O ... Not Active
4. C=CCN1CC[C@]23c4c5ccc(O)c4O[C@H]2C(=O)CC[C@@]3(O)[C@H]1C5 ... Not Active
5. COc1ccc2c(c1)c(CC(=O)O)c(C)n2C(=O)c1ccc(Cl)cc1 ... Not Active
6. CCN1CC(CCN2CCOCC2)C(c2ccccc2)(c2ccccc2)C1=O (centres undefined) ... Not Active
7. COCCOC(=O)C1=C(C)NC(C)=C(C(=O)OC(C)C)C1c1cccc([N+](=O)[O-])c1 (centres undefined) ... Not Active
8. CN1C(=O)COc2c(C(=O)NC3CN4CCC3CC4)cc(Cl)cc21 (centres undefined) ... Not Active
9. Cc1cc(C)nc(NS(=O)(=O)c2ccc(N)cc2)n1 ... Not Active
10. C/C=C/C[C@@H](C)[C@@H](O)[C@H]1C(=O)N[C@@H](CC)C(=O)N(C)CC(=O)N(C)[C@@H](CC(C)C)C(=O)N[C@@H](C(C)C)C(=O)N(C)[C@@H](CC(C)C)C(=O)N[C@@H](C)C(=O)N[C@H](C)C(=O)N(C)[C@@H](CC(C)C)C(=O)N(C)[C@@H](CC(C)C)C(=O)N(C)[C@@H](C(C)C)C(=O)N1C ... Not Active
11. CCn1cc(C(=O)O)c(=O)c2cc(F)c(N3CCN(C)CC3)cc21 ... Not Active
12. CCCN(CCC)C(=O)C(CCC(=O)O)NC(=O)c1ccccc1 (centres undefined) [PROGLUMIDE] ... Not Active
13. ClC(Cl)Cl [CHLOROFORM] ... Not Active
14. COc1ccc2cc([C@H](C)C(=O)O)ccc2c1 ... Not Active
15. O=C(O)Cc1ccccc1Nc1c(Cl)cccc1Cl ... Not Active
16. Nc1c(CC(=O)O)cccc1C(=O)c1ccc(Br)cc1 ... Not Active
17. CCCC(=O)Nc1ccc(OCC(O)CNC(C)C)c(C(C)=O)c1 (centres undefined) ... Not Active
18. C[C@@]12C(=O)OC(=O)[C@]1(C)[C@H]1CC[C@@H]2O1 ... Not Active
19. Cc1ccccc1C(=O)N1CCC(Cc2ccccc2)CC1 ... Not Active
20. CCOC(=O)C1=C(C)NC(C)=C(C(=O)OC)C1c1cccc([N+](=O)[O-])c1 (centres undefined) ... Not Active
21. O=NN(CCCl)C(=O)NCCCl ... Not Active
22. CC(=O)OCC(=O)[C@@]1(O)CC[C@H]2[C@@H]3CCC4=CC(=O)CC[C@]4(C)[C@H]3C(=O)C[C@@]21C [CORTISONE ACETATE] ... Not Active
23. CCOC(=O)C(C)(C)Oc1ccc(Cl)cc1 [CLOFIBRATE] ... Not Active
24. CC(C)(C)c1ccc(C(O)CCCN2CCC(C(O)(c3ccccc3)c3ccccc3)CC2)cc1 (centres undefined) ... Not Active
25. CC(=O)N1CCN(c2ccc(OCC3COC(Cn4ccnc4)(c4ccc(Cl)cc4Cl)O3)cc2)CC1 (centres undefined) ... Not Active
26. CC(C)Cc1ccc(C(C)C(=O)O)cc1 (centres undefined) ... Not Active
27. COc1cc2c(c(OC)c1OC)-c1ccc(OC)c(=O)cc1[C@@H](NC(C)=O)CC2 ... Not Active
28. Cc1cc(=O)n(-c2ccccc2)n1C [ANTIPYRINE] ... Not Active
29. CCN(CC)CCOC(=O)c1ccc(N)cc1 ... Not Active
30. CC1(C)O[C@@H]2C[C@H]3[C@@H]4C[C@H](F)C5=CC(=O)CC[C@]5(C)[C@H]4[C@@H](O)C[C@]3(C)[C@]2(C(=O)CO)O1 [FLURANDRENOLIDE] ... Not Active
31. CC1=C(CC(=O)O)c2cc(F)ccc2/C1=C\c1ccc([S+](C)[O-])cc1 (centres undefined) ... Not Active
32. O=C1CCC(N2C(=O)c3ccccc3C2=O)C(=O)N1 (centres undefined) [THALIDOMIDE] ... Not Active
33. COc1ccc2[nH]c([S+]([O-])Cc3ncc(C)c(OC)c3C)nc2c1 (centres undefined) ... Not Active
34. CCN[C@@H]1C[C@H](N)[C@@H](O[C@H]2OC(CN)=CC[C@H]2N)[C@H](O)[C@H]1O[C@H]1OC[C@](C)(O)[C@H](NC)[C@H]1O ... Not Active
